Would you kindly list inhibition at 50 µg/mL for each of these molecules?
- Test system: wheat Gibberella zeae
- methodDescription: microbe, parasite or virus in culture
- Format: cell-based
- assaySetup: Fusarium graminearum, read-out: fungicidal activity (growth inhibition rate), GZ, 50 μg/mL

**Query** # query: inhibition at 50 µg/mL | item C=CC[C@@H]1C[C@@]2(OC(C)=O)C[C@@H](CC=C)[C@H]3C[C@H]4O[C@H]4C[C@@]32O1 [Zyj07-67-1] | system: wheat Gibberella zeae
**Result** 23%

**Query** Fill in the recorded inhibition at 50 µg/mL for this molecule, with wheat Gibberella zeae as test system: C=CC[C@@H]1C[C@]2(OC(C)=O)C[C@H](OC(C)=O)O[C@@]23C[C@H]2O[C@H]2C[C@H]13 [Zyj07-65-2]
**Result** 0%

**Query** What measured inhibition at 50 µg/mL is associated with C=CC[C@@H]1C[C@]2(O)CC(=O)O[C@@]23CC=CC[C@H]13 [Zyj06-186] on wheat Gibberella zeae?
**Result** 21%

**Query** Hi! What's the reported inhibition at 50 µg/mL for C=CC[C@@H]1C[C@]2(O)CC(O)O[C@@]23CC=CC[C@H]13 (stereo partly shown) [Zyj07-29] on wheat Gibberella zeae?
**Result** 7%

**Query** Quick check: inhibition at 50 µg/mL on wheat Gibberella zeae, item O=C1C[C@@]2(O)CC[C@H]3C[C@@H]4O[C@@H]4C[C@@]32O1 [Zyj07-102] ?
**Result** 27%

**Query** Write down the reported inhibition at 50 µg/mL of C=CC[C@@H]1C[C@]2(O)CCO[C@@]23C[C@H](O)CC[C@H]13 [Zyj07-32] , test system: wheat Gibberella zeae.
**Result** 33%

**Query** Test system wheat Gibberella zeae; read-out inhibition at 50 µg/mL; what value for C=CC[C@@H]1C[C@@]2(O)C[C@@H](CC=C)[C@H]3C[C@@H](O)CC[C@@]32O1 [Zyj07-68] ?
**Result** 0%

**Query** Recall the recorded inhibition at 50 µg/mL for C=CC[C@@H]1C[C@]2(O)CCO[C@@]23C[C@@H](O)[C@H](Cl)C[C@H]13 [Zyj07-101] with wheat Gibberella zeae and state it.
**Result** 3%

**Query** # returns recorded inhibition at 50 µg/mL (system: wheat Gibberella zeae) for C=CC[C@@H]1C[C@]2(O)C(C(=O)OCC)C(=O)O[C@@]23CC=CC[C@H]13 (stereo partly shown) [Zyj06-180]
**Result** 20%

**Query** Lab note: need inhibition at 50 µg/mL with wheat Gibberella zeae for entry CC(=O)O[C@@]12C[C@H]3CC=CC[C@@]1(O3)[C@@H]1CC=CC[C@@H]1C2 [Zyj07-41-2] , please look it up.
**Result** 20%

**Query** Recall the recorded inhibition at 50 µg/mL for C=CC[C@@H]1C[C@]2(O)CCO[C@@]23C[C@@H]2O[C@@H]2C[C@H]13 [Zyj07-31-1] with wheat Gibberella zeae and state it.
**Result** 7%

**Query** For wheat Gibberella zeae, provide inhibition at 50 µg/mL of C=CC[C@@H]1C[C@@]2(O)C[C@@H](CC=C)[C@H]3CC=CC[C@@]32O1 [Zyj07-98] please.
**Result** > 50%

**Query** API: value(readout=inhibition at 50 µg/mL, system=wheat Gibberella zeae) for record CCOC(=O)C1C(=O)O[C@]23CC=CC[C@@H]2[C@H](OOC(C)(C)C)C[C@]13O (stereo partly shown) [Zyj06-127]
**Result** 36%

---

For each record, write down the corresponding inhibition at 50 µg/mL.
- Tested on: Cercospora arachidicola
- methodDescription: Fungicidal activity, fungicide growth rate method, CA
- Format: cell-based
- assaySetup: Mycosphaerella arachidis, 50 μg/mL; read-out: fungicidal activity (growth inhibition rate), CA
// units = %; emit number, no label

**Query** # input molecule: C=CC[C@@H]1C[C@]2(O[Si](C)(C)CC=C)CCO[C@@]23C[C@H](O[Si](C)(C)CC=C)CC[C@H]13 [Zyj07-46] ; wanted: its inhibition at 50 µg/mL
**Result** 14

**Query** What value of inhibition at 50 µg/mL has been reported for the following molecule? C=CC[C@@H]1C[C@@]2(OC(C)=O)C[C@@H](CC=C)[C@H]3C[C@H]4O[C@H]4C[C@@]32O1 [Zyj07-67-1]
**Result** 14

**Query** Look at this molecule and give its reported inhibition at 50 µg/mL. C=CC[C@@H]1C[C@]2(O)CCO[C@@]23CC=CC[C@H]13 [Zyj07-30]
**Result** 14

---

Assignment: determine reported inhibition at 50 µg/mL for the given compounds.
- Test system: Botrytis cinerea
- methodDescription: Fungicidal activity, fungicide growth rate method, BC
- Type: cell-based
- assaySetup: Botrytis cinerea, 50 μg/mL; read-out: fungicidal activity (growth inhibition rate), BC

**Query** Suppose we examine the compound CCOC(=O)C(C(=O)OCC)C1C[C@]2(O)C(C(=O)OCC)C(=O)O[C@@]23CC=CC[C@H]13 (stereo partly shown) ; what inhibition at 50 µg/mL value has been reported?
**Result** > 50%

**Query** Any idea what its inhibition at 50 µg/mL is? The compound is C=CC[C@@H]1C[C@@]2(OC(C)=O)C[C@@H](CC=C)[C@H]3C[C@H]4O[C@H]4C[C@@]32O1
**Result** > 50%

**Query** Any idea what inhibition at 50 µg/mL was measured for CCOC(=O)C(C(=O)OCC)C1CC(=O)[C@@]2(O)CC=CC[C@H]12 (stereo partly shown) ?
**Result** > 50%

**Query** Which inhibition at 50 µg/mL value is on record for CCOC(=O)C[C@@H]1C[C@]2(O)CC(=O)O[C@@]23CC=CC[C@H]13 ?
**Result** 25%

---

- Tested on: Cercospora arachidicola
- methodDescription: Fungicidal activity, fungicide growth rate method, CA
- Format: cell-based
- assaySetup: Mycosphaerella arachidis, 50 μg/mL; read-out: fungicidal activity (growth inhibition rate), CA
Give measured inhibition at 50 µg/mL for each item. Keep answers brief.
# number only, unit % dropped from output

**Query** Quick one: inhibition at 50 µg/mL for CCOC(=O)C1C(=O)O[C@]23CC=CC[C@@H]2[C@H](OOC(C)(C)C)C[C@]13O (stereo partly shown) ?
**Result** 23

**Query** # lookup: inhibition at 50 µg/mL of C=CC[C@@H]1C[C@]2(O)CCO[C@@]23C[C@@H](Cl)[C@H](O)C[C@H]13
**Result** 46

**Query** Param item = C=CC[C@@H]1CC(=O)[C@@]2(O)CC=CC[C@H]12 ; retrieve measured inhibition at 50 µg/mL.
**Result** 46

**Query** Looking for the measured inhibition at 50 µg/mL of C=C(C)C1C[C@]2(O)C(C(=O)OCC)C(=O)O[C@@]23CC=CC[C@H]13 (stereo partly shown) , can you help?
**Result** 26

---

- Tested on: Physalospora piricola
- methodDescription: Fungicidal activity, fungicide growth rate method, PP
- Format: cell-based
- assaySetup: 50 μg/mL; read-out: fungicidal activity (growth inhibition rate), PP
readoutKind: inhibition at 50 µg/mL (%)
Dear colleague, please return just the value in %, with no unit written.

**Query** I have this compound here, C=C(C)C1CC(=O)[C@@]2(O)CC=CC[C@H]12 (stereo partly drawn) , and I need its recorded inhibition at 50 µg/mL.
**Result** 38

**Query** Param item = C=CC[C@@H]1C[C@@]2(OC(C)=O)C[C@@H](CC=C)[C@H]3C[C@@H]4O[C@@H]4C[C@@]32O1 ; retrieve measured inhibition at 50 µg/mL.
**Result** 13

**Query** Look at this compound and give its reported inhibition at 50 µg/mL. CCOC(=O)C[C@@H]1C[C@]2(O)CC(=O)O[C@@]23CC=CC[C@H]13
**Result** 8

**Query** Look up inhibition at 50 µg/mL for this compound: C=C(C)C1C[C@]2(O)C(C(=O)OCC)C(=O)O[C@@]23CC=CC[C@H]13 (stereo partly drawn)
**Result** 0

**Query** Look at this compound and give its reported inhibition at 50 µg/mL. O=C1C[C@@]2(O)CC[C@H]3C[C@@H]4O[C@@H]4C[C@@]32O1
**Result** 42

**Query** Would you kindly share the measured inhibition at 50 µg/mL for CCOC(=O)C(C(=O)OCC)C1CC(=O)[C@@]2(O)CC=CC[C@H]12 (stereo partly drawn) ?
**Result** 26

**Query** # query: inhibition at 50 µg/mL of entry C=CC[C@@H]1C[C@@]2(OC(C)=O)C[C@@H](CC=C)[C@H]3C[C@H]4O[C@H]4C[C@@]32O1
**Result** 31

**Query** Recorded inhibition at 50 µg/mL for C=CC[C@@H]1C[C@]2(O)C(C(=O)OCC)C(=O)O[C@@]23CC=CC[C@H]13 (stereo partly drawn) , please?
**Result** 15

**Query** Which inhibition at 50 µg/mL is reported for this compound? C=CC[C@@H]1C[C@]2(O)CC(=O)O[C@@]23C[C@@H](Cl)[C@H](O)C[C@H]13
**Result** 31

**Query** Endpoint output: inhibition at 50 µg/mL of C=CC[C@@H]1C[C@]2(O)CCO[C@@]23C[C@@H](Cl)[C@H](O)C[C@H]13 . Value?
**Result** 29

**Query** Field request: inhibition at 50 µg/mL | item: C=C(C)[C@@H]1C[C@]2(O)CC(=O)O[C@@]23CC=CC[C@H]13
**Result** 8

**Query** Fill in the blank: the reported inhibition at 50 µg/mL of C=CC[C@@H]1C[C@]2(O[Si](C)(C)CC=C)CCO[C@@]23CC[C@H](O[Si](C)(C)CC=C)C[C@@H]13 is ____.
**Result** 13

**Query** Param item = C=CC[C@@H]1CC(=O)[C@@]2(O)CC=CC[C@H]12 ; retrieve measured inhibition at 50 µg/mL.
**Result** 11

**Query** I would be grateful if you could share the reported inhibition at 50 µg/mL for C=CC[C@@H]1C[C@]2(O)CC(O)O[C@@]23CC=CC[C@H]13 (stereo partly drawn) .
**Result** 45

**Query** Given the entry C=CC[C@@H]1C[C@]2(OC(C)=O)C[C@H](OC(C)=O)O[C@@]23CC=CC[C@H]13 , report its measured inhibition at 50 µg/mL.
**Result** 31

**Query** May I ask what inhibition at 50 µg/mL has been recorded for C=CC[C@@H]1C[C@]2(O)CC(=O)O[C@@]23C[C@H]2O[C@H]2C[C@H]13 ?
**Result** 30

**Query** Would you kindly share the measured inhibition at 50 µg/mL for CCOC(=O)C1C(=O)O[C@]23CC=CC[C@@H]2[C@H](OOC(C)(C)C)C[C@]13O (stereo partly drawn) ?
**Result** 5

**Query** Record request: inhibition at 50 µg/mL value, item C=CC[C@@H]1C[C@]2(O)CCO[C@@]23C[C@H]2O[C@H]2C[C@H]13
**Result** 31

**Query** I'd like to know its inhibition at 50 µg/mL. The compound in question is C=CC[C@@H]1C[C@]2(OC(C)=O)C[C@H](OC(C)=O)O[C@@]23C[C@H]2O[C@H]2C[C@H]13
**Result** 12

**Query** Dear colleague, I am looking for the recorded inhibition at 50 µg/mL of the following compound: C=CC[C@@H]1C[C@]2(O)CC(=O)O[C@@]23CC=CC[C@H]13
**Result** 11

**Query** # get_value(readout='inhibition at 50 µg/mL', item= C=CC[C@@H]1C[C@]2(O)CCO[C@@]23CC=CC[C@H]13 )
**Result** 0

**Query** What value of inhibition at 50 µg/mL has been reported for the following compound? C=CC[C@@H]1C[C@]2(O[Si](C)(C)CC=C)CCO[C@@]23C[C@H](O[Si](C)(C)CC=C)CC[C@H]13
**Result** 21

**Query** Quick check: inhibition at 50 µg/mL of C=CC[C@@H]1C[C@@]2(O)C[C@@H](CC=C)[C@H]3C[C@@H](O)CC[C@@]32O1 ?
**Result** 2

Source: patent US11716992B2
